These measurements were taken from paper PMC11767451.

Assay: Autosampler stability of extracted dog plasma samples at 4 °C
Assay type: physicochemical
Settings: 48 hours autosampler 4 °C
# strict inequality: %-ACC (% accuracy vs nominal) < 90% yields true (1), everything else yields false (0)

Previously resolved entries follow.
>>> assigned_label("O=c1ccn([C@@H]2O[C@H](CO)[C@@H](O)C2(F)F)c(=O)[nH]1")
"false (0)"
>>> assigned_label("CCCCCN(C)CCC(O)(P(=O)(O)O)P(=O)(O)O [IB, ibandronate]")
"false (0)"

Exam item: In plain terms, does CCCCCN(C)CCC(O)(P(=O)(O)O)P(=O)(O)OP(=O)(O)OC[C@H]1O[C@@H](n2ccc(N)nc2=O)C(F)(F)[C@@H]1O (stereo partly drawn) come in under 90% for %-ACC (% accuracy vs nominal)?
Marked response: true (1)

Exam item: Here is the next compound: Nc1ccn([C@@H]2O[C@H](CO)[C@@H](O)C2(F)F)c(=O)n1
Marked response: false (0)

Exam item: Here is the next compound: O=c1ccn([C@@H]2O[C@H](COP(=O)(O)O)[C@@H](O)C2(F)F)c(=O)[nH]1
Marked response: true (1)
